FYI, the data here is from patent US9409952B2.

experiment description: Metabolic stability in human hepatic microsome
Assay type: in vitro ADME
conditions: microsomes, pH 7.4; human hepatic microsome, NADPH(+); read-out: CL NADPH(+)
Starred links: 1 amine or outer side, 2 acyl side, 3 side chain; linkers in the order of their positions; H or OH if unused. Positions of bridges follow the written chain, without caps; N, C: chain ends. Non-standard residues stand in square brackets, D forms with d. Residues, ends and D or L forms follow the SMILES beside them. *: point of attachment. Phe(3-(CH2)4CO) = O=C([C@H](Cc1cccc(CCCCC(=O)[*:3])c1)N[*:1])[*:2]; hhPhe = N[C@@H](CCCc1ccccc1)C(=O)O; NMeF = CN[C@@H](Cc1ccccc1)C(=O)O; NMeL = CN[C@@H](CC(C)C)C(=O)O; NMeV = CN[C@H](C(=O)O)C(C)C; NMeA = CN[C@@H](C)C(=O)O; Piperidide = C1CCN(*)CC1
Exercise: state measured microsomal CLint at 1 uM for each of the compounds provided.
Please don't drop the unit; write it after the number.

I'd like to know its microsomal CLint at 1 uM. The compound in question is CC[C@H](C)[C@@H]1NC(=O)[C@H](Cc2ccccc2)N(C)C(=O)[C@H](Cc2ccccc2)NC(=O)[C@H](CC(C)C)N(C)C(=O)[C@H](C(C)C)NC(=O)[C@H](CC(C)C)NC(=O)CCCCc2cccc(c2)C[C@@H](C(=O)N2CCCCC2)NC(=O)[C@H]([C@@H](C)O)NC(=O)[C@H](CC(C)C)NC(=O)[C@H](C)N(C)C1=O [DP-894] (LV[NMeL]F[NMeF]I[NMeA]LT[Phe(3-(CH2)4CO)]-Piperidide; lactam N-10)
71 µL/min/mg

Quick one: microsomal CLint at 1 uM for C=C1CCC(=O)N(C)[C@@H](Cc2ccccc2)C(=O)N(C)[C@@H](CC(C)C)C(=O)N[C@@H]([C@@H](C)O)C(=O)N(C)[C@@H](C)C(=O)NCC(=O)N(C)[C@@H](CC(C)C)C(=O)N(C)[C@@H](CC(C)C)C(=O)N(C)[C@@H](CC(C)C)C(=O)N[C@H](C(=O)N2CCCCC2)Cc2ccc1cc2 ?
248 µL/min/mg

Which microsomal CLint at 1 uM value is on record for CC(C)C[C@@H]1NC(=O)[C@@H]2CCCN2C(=O)[C@H](Cc2ccccc2)N(C)C(=O)[C@H](C)N(C)C(=O)[C@H]([C@@H](C)O)NC(=O)[C@@H](C(C)C)NC(=O)C[C@@H](C(=O)N2CCCCC2)NC(=O)[C@H](CC(C)C)N(C)C(=O)[C@H](C)N(C)C(=O)[C@H](CCCc2ccccc2)NC(=O)[C@H](C(C)C)N(C)C1=O [DP-733] ([dV]T[NMeA][NMeF]PL[NMeV][hhPhe][NMeA][NMeL]D-Piperidide; lactam N-11) ?
97 µL/min/mg

###

Exercise: for every item that follows, state its recorded Papp at 18 hours, 50 µM.
experiment description: PAMPA (parallel artificial membrane permeability assay)
Assay type: in vitro ADME
conditions: PAMPA; membrane permeation rate (Pe); 50 mM MOPSO buffer pH 6.5 with 5.0% glycocholic acid, 37° C., 18 hours; read-out: iPAMPA Pe
Positions of bridges follow the written chain, without caps; N, C: chain ends. Non-standard residues stand in square brackets, D forms with d. Residues, ends and D or L forms follow the SMILES beside them. *: point of attachment. NMePhe(3-Cl) = CN[C@@H](Cc1cccc(Cl)c1)C(=O)O; NMeF = CN[C@@H](Cc1ccccc1)C(=O)O; NMeI = CC[C@H](C)[C@H](NC)C(=O)O; NMeL = CN[C@@H](CC(C)C)C(=O)O; NMeV = CN[C@H](C(=O)O)C(C)C; NMeA = CN[C@@H](C)C(=O)O; Piperidide = C1CCN(*)CC1; dNMeA = CN[C@H](C)C(=O)O; β3hA = C[C@H](N)CC(=O)O; Sar = CNCC(=O)O; tBu = CC(C)(C)*
Lab book: enter the figure in ×10⁻⁶ cm/s, no units written.

# input compound: CC[C@H](C)[C@H](NC(=O)[C@H](CC(C)C)NC(=O)[C@@H]1CCCN1C(=O)[C@H](CC(C)C)NC(=O)[C@H](CC(C)C)N(C)C(=O)[C@@H]1CC(=O)N[C@@H](Cc2ccccc2)C(=O)N[C@@H](CC(C)C)C(=O)N(C)[C@@H](CC(C)C)C(=O)N[C@@H]([C@@H](C)O)C(=O)N(C)[C@@H](Cc2cccc(Cl)c2)C(=O)N(C)[C@@H](C)C(=O)N(C)[C@@H](CC(C)C)C(=O)N1)C(=O)N1CCCCC1 [DP-925] (FL[NMeL]T[NMePhe(3-Cl)][NMeA][NMeL]D[NMeL]LPLI-Piperidide; lactam N-8) ; wanted: its Papp at 18 hours, 50 µM
0.1

Bench note: what Papp at 18 hours, 50 µM did CC[C@H](C)[C@@H]1NC(=O)[C@H](Cc2ccccc2)N(C)C(=O)[C@H](C(C)C)N(C)C(=O)[C@H](Cc2ccccc2)NC(=O)[C@H](CC(C)C)N(C)C(=O)[C@H](CC(C)C)NC(=O)[C@@H](C(C)C)NC(=O)C[C@@H](C(=O)N2CCCCC2)NC(=O)[C@H]([C@@H](C)O)NC(=O)[C@H](C)NC(=O)[C@H](C)N(C)C1=O [DP-230] ([dV]L[NMeL]F[NMeV][NMeF]I[NMeA]ATD-Piperidide; lactam N-11) show?
44

// query Papp at 18 hours, 50 µM value for entry CC(C)C[C@@H]1NC(=O)[C@H](C)N(C)C(=O)[C@H]([C@@H](C)O)NC(=O)[C@H](Cc2ccccc2)N(C)C(=O)CNC(=O)[C@H](C(C)C)N(C)C(=O)[C@H](C(C)C)NC(=O)[C@H](C)N(C)C(=O)[C@H](Cc2ccccc2)NC(=O)[C@H](C)N(C)C(=O)[C@@H](C)N(C)C(=O)C[C@H](C)NC1=O [DP-753] (cyclo(F[NMeA]V[NMeV]G[NMeF]T[NMeA]L[β3hA][dNMeA][NMeA]))
10

Look at this compound and give its reported Papp at 18 hours, 50 µM. CC[C@H](C)[C@H]1C(=O)N[C@H](C(=O)N2CCCCC2)CC(=O)N[C@H](C(C)C)C(=O)N[C@@H](CC(C)C)C(=O)N(C)[C@@H](Cc2ccccc2)C(=O)N[C@@H]([C@@H](C)O)C(=O)N(C)[C@@H](C)C(=O)N[C@@H](C(C)C)C(=O)N[C@@H](Cc2ccccc2)C(=O)N(C)[C@@H](CC(C)C)C(=O)N[C@@H](CC(C)C)C(=O)NCC(=O)N1C [DP-216] ([dV]L[NMeF]T[NMeA]VF[NMeL]LG[NMeI]D-Piperidide; lactam N-12)
4.5

Given the entry CC(C)C[C@H]1C(=O)N[C@@H](COC(C)(C)C)C(=O)N[C@H](C(=O)N2CCCCC2)CC(=O)N(C)CC(=O)N(C)[C@@H](Cc2ccccc2)C(=O)N(C)[C@@H](C)C(=O)N(C)[C@@H](CC(C)C)C(=O)N[C@@H]([C@@H](C)O)C(=O)N(C)[C@@H](C)C(=O)N1C [DP-163] ([Sar][NMeF][NMeA][NMeL]T[NMeA][NMeL]S(tBu)D-Piperidide; lactam N-9) , report its measured Papp at 18 hours, 50 µM.
23

###

experiment description: PAMPA (parallel artificial membrane permeability assay)
Assay type: in vitro ADME
conditions: PAMPA; membrane permeation rate (Pe); 50 mM MOPSO buffer pH 6.5 with 5.0% glycocholic acid, 37° C., 18 hours; read-out: iPAMPA Pe
Positions of bridges follow the written chain, without caps; N, C: chain ends. Non-standard residues stand in square brackets, D forms with d. Residues, ends and D or L forms follow the SMILES beside them. *: point of attachment. NMeF = CN[C@@H](Cc1ccccc1)C(=O)O; NMeL = CN[C@@H](CC(C)C)C(=O)O; NMeV = CN[C@H](C(=O)O)C(C)C; NMeA = CN[C@@H](C)C(=O)O; Piperidide = C1CCN(*)CC1; Sar = CNCC(=O)O
The label depends only on Papp at 18 hours, 50 µM: Criterion met if it is at least 30 ×10⁻⁶ cm/s, Criterion not met if it is smaller.

Entry CC[C@H](C)[C@H](NC(=O)[C@H](C)N(C)C(=O)[C@@H]1CC(=O)N[C@H](C(C)C)C(=O)N(C)[C@@H](C)C(=O)N(C)[C@@H](CC(C)C)C(=O)N(C)[C@@H](CC(C)C)C(=O)N(C)CC(=O)N(C)[C@@H](Cc2ccccc2)C(=O)N[C@@H](C)C(=O)N(C)[C@@H](Cc2ccccc2)C(=O)N(C)[C@@H](CC(C)C)C(=O)N[C@@H]([C@@H](C)O)C(=O)N1)C(=O)N1CCCCC1 [DP-584] ([dV][NMeA][NMeL][NMeL][Sar][NMeF]A[NMeF][NMeL]TD[NMeA]I-Piperidide; lactam N-11) : is its Papp at 18 hours, 50 µM no less than 30 ×10⁻⁶ cm/s?
Criterion not met

Given the entry CC(C)C[C@@H]1NC(=O)[C@H]([C@@H](C)O)NC(=O)[C@H](CC(C)C)N(C)C(=O)[C@H](Cc2ccccc2)N(C)C(=O)[C@H](CC(C)C)N(C)C(=O)C[C@@H](C(=O)N2CCCCC2)NC(=O)[C@H](CC(C)C)N(C)C1=O [DP-722] ([NMeL][NMeF][NMeL]TL[NMeL]D-Piperidide; lactam N-7) , answer whether its Papp at 18 hours, 50 µM meets or surpasses 30 ×10⁻⁶ cm/s.
Criterion met

Kindly determine if Papp at 18 hours, 50 µM recorded for CC[C@H](C)[C@@H]1NC(=O)[C@H](CC(C)C)NC(=O)[C@H](Cc2ccccc2)NC(=O)CN(C)C(=O)[C@H](CC(C)C)NC(=O)[C@H](Cc2ccccc2)NC(=O)[C@@H](C)NC(=O)C[C@@H](C(=O)N2CCCCC2)NC(=O)[C@H]([C@@H](C)O)NC(=O)[C@H](Cc2ccccc2)NC1=O [DP-430] ([dA]FL[Sar]FLIFTD-Piperidide; lactam N-10) is above or exactly 30 ×10⁻⁶ cm/s.
Criterion met

Given the entry CC[C@H](C)[C@@H]1NC(=O)[C@H](CC(C)C)N(C)C(=O)[C@H](Cc2ccccc2)N(C)C(=O)[C@@H](C(C)C)NC(=O)C[C@@H](C(=O)N2CCCCC2)NC(=O)[C@H](CC(C)C)N(C)C(=O)[C@H](C)N(C)C(=O)[C@H]([C@@H](C)O)NC(=O)[C@H](Cc2ccccc2)N(C)C(=O)[C@H](C)N(C)C1=O [DP-255] ([dV][NMeF][NMeL]I[NMeA][NMeF]T[NMeA][NMeL]D-Piperidide; lactam N-10) , answer whether its Papp at 18 hours, 50 µM meets or surpasses 30 ×10⁻⁶ cm/s.
Criterion met

Determine whether this compound has Papp at 18 hours, 50 µM no lower than 30 ×10⁻⁶ cm/s: CC(C)C[C@@H]1NC(=O)[C@H](CC(C)C)N(C)C(=O)[C@H](C)NC(=O)[C@H](C(C)C)N(C)C(=O)[C@H](C)N(C)C(=O)CN(C)C(=O)[C@H]([C@@H](C)O)NC(=O)[C@H](Cc2ccccc2)NC(=O)[C@H](CC(C)C)N(C)C(=O)[C@H](C)N(C)C(=O)C[C@@H](C(=O)N2CCCCC2)NC1=O [DP-237] ([NMeA][NMeL]FT[Sar][NMeA][NMeV]A[NMeL]LD-Piperidide; lactam N-11)
Criterion not met
